Overview of recorded ROS RLU ratio for various compounds
- Test system: FcγRIIA
- PROTOCOL: Immobilized immune complex (IC)-induced ROS generation in FcγRIIA+/γ-/- mouse bone marrow neutrophils (high-throughput screen)
- Format: cell-based
- CONDITION DESCRIPTION: compound at 1.1 μM; mouse BMN ROS induced by immobilized IC
EXPERIMENTAL READOUT: ROS RLU ratio

COMPOUND	STUDY SYSTEM	EXPERIMENTAL READOUT	OBSERVED RESULT
CN(C)CCCn1cc(C2=C(c3c[nH]c4ccccc34)C(=O)NC2=O)c2ccccc21 [GF109203X]	FcγRIIA	ROS RLU ratio	0.338
CN(c1ccccc1CNc1nc(Nc2ccc3c(c2)CC(=O)N3)ncc1C(F)(F)F)S(C)(=O)=O [PF431396]	FcγRIIA	ROS RLU ratio	0.301
COc1cc(Nc2c(C#N)cnc3cc(OCCCN4CCN(C)CC4)c(OC)cc23)c(Cl)cc1Cl [Bosutinib]	FcγRIIA	ROS RLU ratio	0.033
Cn1cc(C2=C(c3cn(CCCSC(=N)N)c4ccccc34)C(=O)NC2=O)c2ccccc21 [Ro 31-8220]	FcγRIIA	ROS RLU ratio	0.778
Cc1n[nH]c2ccc(-c3cncc(OC[C@@H](N)Cc4c[nH]c5ccccc45)c3)cc12 [A-443654]	FcγRIIA	ROS RLU ratio	0.266
